target: T1, recombinant human full-length TDP-43 (TAR DNA-binding protein 43), soluble (human, UniProt Q13148 1-414); test: SPR, immobilized soluble TDP-43
T1 construct: Used on Luminex beads, coated on ELISA plates, and immobilized or injected in SPR; also called FL TDP-43; TDP-43 protein
T1 sequence (Q13148 whole entry): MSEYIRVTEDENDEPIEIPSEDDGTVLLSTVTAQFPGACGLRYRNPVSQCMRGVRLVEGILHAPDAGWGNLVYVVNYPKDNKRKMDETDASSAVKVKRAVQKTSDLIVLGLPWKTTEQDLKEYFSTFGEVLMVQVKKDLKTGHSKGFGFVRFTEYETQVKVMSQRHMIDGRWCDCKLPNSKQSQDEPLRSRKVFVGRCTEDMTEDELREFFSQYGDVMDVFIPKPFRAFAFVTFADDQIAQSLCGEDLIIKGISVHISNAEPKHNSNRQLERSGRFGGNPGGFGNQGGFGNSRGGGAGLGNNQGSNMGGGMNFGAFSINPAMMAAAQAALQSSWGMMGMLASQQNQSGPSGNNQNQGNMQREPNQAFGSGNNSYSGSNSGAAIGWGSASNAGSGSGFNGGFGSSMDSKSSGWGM
reportedMetric: kon (M⁻¹ s⁻¹)
# unit: M⁻¹ s⁻¹ | format: bare number

binder	kon [M⁻¹ s⁻¹]
ACI-7069-634H10-Ab2 (antibody, mouse IgG2b, V domains shown, Mouse IgG2b, kappa, from hybridoma; also called 634H10H7) VH: EVQLQQSGAELVKPGASVRLSCTASGFNIKDTYMHWVKQRPEQGLEWIGRIDPANSNTKFDPKFQGKATITSDTSSNTAYLQLSSLTSEDTAVYYCARFYGGSHWYFDVWGAGTTVTVSS VL: DIKMTQSPSSMYASLGERVTITCKASQDIKSYLSWYQHKPWKSPKALIYYATSLADGVPSRFSGSGSGQDYSLTISSLESDDTATYYCLQQGESPYTFGGGTKLEIK	44300

Q) # input binder: 642D12B4 Fab (Fab, V domains shown, Fab fragment; also called Fab fragment of ACI-7069-642D12-Ab1) VH: EVQLQQSGAELVKPGASVRLSCTASGFNIKDPYMHWVRQRPKQGLEWIGRIDPADGNTKYDPKFQGKATLTADTSSNVAYLHLSSLTSEDTAVYYCARFYGSSHWYFDVWGAGTTVTVSS VL: DIKMTQSPSSMYASLGERVTITCKASQDIKRYLSWYQQKPWKSPKILIYYATSLADGVPSRFSGTGSGQDYSLTISSLESDDVATYYCLQQGESPYTFGGGTKLEIK ; wanted: its kon
A) 128000
